target-or-test-system: Beta-2 adrenergic receptor (Homo sapiens) (UniProt P07550)
Sequence (P07550 whole entry, looked up): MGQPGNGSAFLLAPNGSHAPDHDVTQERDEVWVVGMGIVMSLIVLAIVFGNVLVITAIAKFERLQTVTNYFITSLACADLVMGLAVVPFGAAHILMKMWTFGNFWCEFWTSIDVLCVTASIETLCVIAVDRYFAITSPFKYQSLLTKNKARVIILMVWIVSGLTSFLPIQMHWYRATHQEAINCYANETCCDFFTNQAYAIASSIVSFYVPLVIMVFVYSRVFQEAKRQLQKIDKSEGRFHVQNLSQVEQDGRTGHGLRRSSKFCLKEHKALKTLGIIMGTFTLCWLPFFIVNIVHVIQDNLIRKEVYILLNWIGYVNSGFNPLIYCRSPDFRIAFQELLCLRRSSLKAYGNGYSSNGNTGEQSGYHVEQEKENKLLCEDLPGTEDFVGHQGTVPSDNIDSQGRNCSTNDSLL
procedure-details: Adrenergic beta2 receptor (ADRB2) small molecule antagonists, cell-based qHTS assay (AID 1963592); also: % is scaled to controls: 0 for no effect and ±100 for the full control effect; nearly all actives have a fitted effect of over 50% in size
settings: CHO-ADRB2 cells, isoproterenol-stimulated cAMP HTRF ratio, 0.5 h; series mostly up to 92.4 µM
Records with an inconclusive call do not appear. The source made the active and inactive calls. Calls follow the shape of the full dose curve.
assay-endpoint: outcome

Reference set, count: 5
molecule: O=C1NC(=O)c2cccc3cccc1c23
target-or-test-system: Beta-2 adrenergic receptor (Homo sapiens) (UniProt P07550)
result: inactive
--
molecule: CCCCN(CCN(CCCC)C(=O)N1CCOCC1)C(=O)N1CCOCC1
target-or-test-system: Beta-2 adrenergic receptor (Homo sapiens) (UniProt P07550)
result: inactive
--
molecule: O=C1CCCCC1C1CCCCC1 (configuration not stated)
target-or-test-system: Beta-2 adrenergic receptor (Homo sapiens) (UniProt P07550)
result: inactive
--
molecule: CCCC/C=C/CCCCO
target-or-test-system: Beta-2 adrenergic receptor (Homo sapiens) (UniProt P07550)
result: inactive
--
molecule: Cc1nn(C)c(Oc2ccccc2)c1/C=N/OCc1ccc(C(=O)OC(C)(C)C)cc1
target-or-test-system: Beta-2 adrenergic receptor (Homo sapiens) (UniProt P07550)
result: inactive

Inquiry: Could you tell me which outcome is on file for COC(=O)c1nc(Cl)c(Cl)nc1N ?
Reply text: inactive

Inquiry: Also CC(O)CC(C)O (configuration not stated) , if possible.
Reply text: inactive

Inquiry: Also Nc1c(Cl)cc(Cl)cc1[N+](=O)[O-] , if possible.
Reply text: inactive

Inquiry: Also CC(C)c1c(C(=O)Nc2ccccc2)c(-c2ccccc2)c(-c2ccc(F)cc2)n1CC[C@@H](O)C[C@@H](O)CC(=O)O , if possible.
Reply text: inactive

Inquiry: Also Cc1c[nH]c(=O)[nH]c1=O , if possible.
Reply text: inactive

Inquiry: Also OCCN(CCO)c1nc(N2CCCCC2)c2nc(N(CCO)CCO)nc(N3CCCCC3)c2n1 , if possible.
Reply text: inactive

Inquiry: Also O=C(CS(=O)Cc1ccco1)NC/C=C\COc1cc(CN2CCCCC2)ccn1 (configuration not stated) , if possible.
Reply text: inactive

----------
procedure-details: p53 small molecule agonists, cell-based qHTS assay with human liver microsomes (AID 1963577);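 also: p53 response element beta-lactamase reporter cells with liver microsomes plus NADPH; % is scaled to controls: 0 for no effect and ±100 for the full control effect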
settings: HCT-116 p53RE-bla with human liver microsomes, ratio, 16 h; series mostly up to 66 µM
Inconclusive results are not listed. The source made the active and inactive calls. Calls follow the shape of the full dose curve.
assay-endpoint: activation

Reference set, count: 5
structure-string: Oc1ccc(Cc2ccccc2)cc1
activation: inactive

structure-string: CN(C)C(=O)NC1(c2ccccc2)CCN(CCC[C@]2(c3ccc(Cl)c(Cl)c3)CCCN(C(=O)c3ccccc3)C2)CC1
activation: 8.31% [at 13.5 µM] (inactive)

structure-string: CC1=CC(=C(c2ccc(N)cc2)c2ccc(N)cc2)C=CC1=N
activation: -13.4% [at 5.99 µM] (inactive)

structure-string: NC(=O)c1ccccc1C(N)=O
activation: inactive

structure-string: Cc1cc(CCN2CCN(c3nsc4ccccc34)CC2)cc2c1NC(=O)CC2(C)C
activation: inactive

Inquiry: Could you tell me which activation is on file for Cc1c(C)n(Cc2ccccc2)c2ccc(C(=O)OCCN(C)C)cc12 ?
Reply text: inactive

----------
procedure-details: cAMP Responsive Elements (CRE) small molecule antagonists, cell-based qHTS assay (AID 1963591); also: potency is read from the fitted curve at half-maximal effect
settings: CRE-bla HEK293T, beta-lactamase FRET ratio; series mostly up to 92.4 µM
Inconclusive results are not listed. Calls of active or inactive are those of the source. Calls follow the shape of the dose curve; as a rule, active = well fitted inhibition curve with a large enough effect in the signal ratio in the repeat runs (not every such curve was filed as active); inconclusive = weak or mixed curves, or effect the other way; inactive = flat fitted curve, though single readings scatter; the % refers to the signal ratio.
For each entry below, report its Potency value.

Inquiry: Could you tell me which Potency is on file for CC1(C)[C@H](C(=O)O)N2C(=O)C[C@H]2S1(=O)=O ?
Reply text: 1.33 µM (active)

Inquiry: Also Oc1ccc(C2(c3ccc(O)c(C4CCCCC4)c3)CCCCC2)cc1C1CCCCC1 , if possible.
Reply text: 21.7 µM (active)

Inquiry: Also NC(N)=NN=C(/C=C/c1ccc([N+](=O)[O-])o1)/C=C/c1ccc([N+](=O)[O-])o1 , if possible.
Reply text: 29.8 µM (active)

Inquiry: Also Cc1ccc(O)c2ncccc12 , if possible.
Reply text: 13.3 µM (active)

Inquiry: Also CCCCCCCCOC(=O)c1cc(O)c(O)c(O)c1 , if possible.
Reply text: 30.6 µM (active)

Inquiry: Also CCOC(=O)c1nc(C(Cl)(Cl)Cl)n(-c2ccc(Cl)cc2Cl)n1 , if possible.
Reply text: 61.1 µM (active)

Inquiry: Also O=C(Oc1cccc2cccnc12)c1ccccc1 , if possible.
Reply text: 23.7 µM (active)

Inquiry: Also Cc1ncc([C@@H](CCCCCCc2ccc3c(n2)NCCC3)CC(=O)O)cn1 , if possible.
Reply text: 0.545 µM (active)

----------
target-or-test-system: Muscarinic acetylcholine receptor M1 (Homo sapiens) (UniProt P11229)
Sequence (P11229 whole entry, looked up): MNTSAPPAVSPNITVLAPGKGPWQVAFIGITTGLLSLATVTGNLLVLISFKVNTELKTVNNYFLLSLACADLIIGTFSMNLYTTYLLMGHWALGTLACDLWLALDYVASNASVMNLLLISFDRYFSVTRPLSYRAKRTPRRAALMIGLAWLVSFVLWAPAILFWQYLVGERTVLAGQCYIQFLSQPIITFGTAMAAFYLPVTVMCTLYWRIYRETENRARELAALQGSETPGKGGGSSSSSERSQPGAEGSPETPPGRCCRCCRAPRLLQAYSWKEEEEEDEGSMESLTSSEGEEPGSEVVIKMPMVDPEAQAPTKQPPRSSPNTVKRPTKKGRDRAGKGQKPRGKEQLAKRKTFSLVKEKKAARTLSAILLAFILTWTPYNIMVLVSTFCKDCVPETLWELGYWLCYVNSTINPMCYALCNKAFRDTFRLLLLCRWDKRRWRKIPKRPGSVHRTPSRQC
procedure-details: Cholinergic receptor muscarinic 1 (CHRM1) small molecule agonists, cell-based qHTS assay (AID 1963589); also: potency is read from the fitted curve at half-maximal effect; nearly all actives have a fitted effect of over 35% in size
settings: CHRM1-CHO cells, agonist mode, calcium flux fluorescence; series mostly up to 76.8 µM
Calls of active or inactive are those of the source. The call rests on the fitted dose curve.
For each entry below, report its Potency value.

Inquiry: Could you tell me which Potency is on file for COc1cc(-c2ccc(=O)[nH]n2)ccc1OC(F)F ?
Reply text: 0.0038 µM (active)

Inquiry: Also CC(=O)NCCCS(=O)(=O)O , if possible.
Reply text: 23.8 µM (active)

Inquiry: Also CCCCCCCCCCCCSCCOCCO , if possible.
Reply text: 0.0379 µM (active)

Inquiry: Also Nc1ccc2c3c(cccc13)-c1ccccc1-2 , if possible.
Reply text: 49.5 µM (active)

Inquiry: Also CC(=O)OC(C)C[N+](C)(C)C (stereo unspecified) , if possible.
Reply text: 0.151 µM (active)

Inquiry: Also CCCC(=O)OC[C@@H](OC(=O)CCC)[C@@H](OC(=O)CCC)[C@H](Cn1c2nc(=O)[nH]c(=O)c-2nc2cc(C)c(C)cc21)OC(=O)CCC , if possible.
Reply text: 19 µM (active)

----------
procedure-details: p53 small molecule agonists, cell-based qHTS assay (AID 1963582); also: % is scaled to controls: 0 for no effect and ±100 for the full control effect
settings: HCT-116 p53RE-bla reporter, beta-lactamase FRET ratio, 16 h; series mostly up to 66 µM
Results filed as inconclusive are left out. Calls of active or inactive are those of the source. The call rests on the fitted dose curve; in most records, active means well fitted activation curve with a large enough effect in the signal ratio in the repeat runs (not every such curve was filed as active); inconclusive means weak or mixed curves; inactive means flat fitted curve, though single readings scatter; the % refers to the signal ratio.
assay-endpoint: activation

compound: COC(=O)[C@]1(C)CCC[C@@]2(C)[C@H]1CC=C1C=C(C(C)C)CC[C@@H]12
result: inactive
//
compound: Nc1ccc(O)c(N)c1
result: inactive
//
compound: CN(C)CC[C@@H](c1ccc(Cl)cc1)c1ccccn1
result: inactive
//
compound: Nc1c(I)cc(I)c(C(=O)N(CCC(=O)O)c2ccccc2)c1I
result: inactive
//
compound: CC1(C)C(=O)N(Br)C(=O)N1Br
result: inactive

Inquiry: Could you tell me which activation is on file for Cc1ccccn1 ?
Reply text: inactive

Inquiry: Also OC(CCN1CCCCC1)(c1ccccc1)C1CC2C=CC1C2 (stereo unspecified) , if possible.
Reply text: inactive

Inquiry: Also ClC(Cl)Cl , if possible.
Reply text: inactive

Inquiry: Also CC(NCCC(c1ccccc1)c1ccccc1)c1ccccc1 (stereo unspecified) , if possible.
Reply text: inactive

Inquiry: Also CCCCN(CCCC)C(=S)SSC(=S)N(CCCC)CCCC , if possible.
Reply text: inactive

Inquiry: Also CCCCCCCC/C=C/CCCCCCCC1=NCCN1CCO , if possible.
Reply text: inactive

Inquiry: Also COc1c2occc2cc2ccc(=O)oc12 , if possible.
Reply text: inactive

Inquiry: Also FC1(F)C(F)(F)C(F)(F)C2(F)C(F)(F)C(F)(F)C(F)(F)C(F)(F)C2(F)C1(F)F (stereo unspecified) , if possible.
Reply text: inactive

Inquiry: Also CCN(CCCc1ccccc1)CCCc1ccccc1 , if possible.
Reply text: inactive

Inquiry: Also C[N+](C)(C)CCOC(N)=O , if possible.
Reply text: inactive

Inquiry: Also Cc1cccc(OCCOc2cccc(C)c2)c1 , if possible.
Reply text: inactive

Inquiry: Also Nc1ccc(N=Nc2ccc(N)cc2)cc1 , if possible.
Reply text: inactive

Inquiry: Also C/C(=C(/OCCOc1ccc(Cl)cc1)c1ccc(Cl)cc1Cl)n1ccnc1 , if possible.
Reply text: inactive

Inquiry: Also CC(CN)CCCN (stereo unspecified) , if possible.
Reply text: inactive

Inquiry: Also Oc1ccc(N=Nc2ccccc2)cc1 , if possible.
Reply text: inactive

Inquiry: Also CCCCOCCOC(=O)COc1nc(Cl)c(Cl)cc1Cl , if possible.
Reply text: inactive

Inquiry: Also O=[N+]([O-])c1ccc(NCCO)c(OCCO)c1 , if possible.
Reply text: inactive

Inquiry: Also COc1ccnc2c1CCCCC2S(=O)c1nc2ccccc2[nH]1 (stereo unspecified) , if possible.
Reply text: inactive

Inquiry: Also CC1=NN(c2cc(Cl)c(S(=O)(=O)O)cc2Cl)C(=O)C1N=Nc1ccc(S(=O)(=O)O)cc1 (stereo unspecified) , if possible.
Reply text: inactive

Inquiry: Also c1cnc(N2CCN(Cc3ccc4c(c3)OCO4)CC2)nc1 , if possible.
Reply text: inactive

Inquiry: Also C[C@]12CCC(=O)C=C1C=C[C@@H]1[C@@H]2CC[C@@]2(C)[C@H]1CC[C@@]21CCC(=O)O1 , if possible.
Reply text: inactive
